Assay: NCI Yeast Anticancer Drug Screen. Data for the rad50EPP+ strain (AID 151)
Conditions: S. cerevisiae rad50 mutant strain, at 33.0 µM, hits give high values
Experimental: Growth inhibition of yeast strains with defined genetic alterations is measured as a screen for potential anti-cancer activity. Selected strains with alterations in DNA damage repair or cell cycle control were exposed to compounds and growth inhibition was measured relative to vehicle treated controls. The strain used in this assay is rad50EPP+
Compounds without any hit were thinned out: in the full panel of roughly 79,000, 15% have a hit. Residues, ends and D or L forms follow the SMILES beside them. *: point of attachment. Fmoc = O=C(OCC1c2ccccc2-c2ccccc21)*; Boc = CC(C)(C)OC(=O)*
Class Y: growth inhibition at least 20%. Class N: growth inhibition below 20%.

Could you verify whether the entry `O=[N+]([O-])/C=C/c1cc2ccc3ccccc3c2[nH]1` shows growth inhibition of no less than 20%?
Y

API: above_or_equal(metric=growth inhibition, cutoff=20%) for item `CC1CCN(CCC(=O)c2ccc([N+](=O)[O-])cc2)CC1`
N

Exam item: decide whether the reported growth inhibition for `C/C(=N\Sc1ccccc1)c1ccccc1O` is at least 20%.
Y

Determine whether measured growth inhibition meets or exceeds 20% for CC1=CN2C(c3ccccc3)=NON(c3ccc(C)cn3)C2C=C1 (configuration not stated)
N

Record CC(CC/C(=N/O)c1ccccc1)(CC/C(=N\O)c1ccccc1)[N+](=O)[O-] (configuration not stated) ; criterion: growth inhibition no lower than 20%. Met?
N

Decide: growth inhibition of NC(N)=NC(N)=Nc1ccccc1 (tested in a mixture with another compound) >= 20%?
N

Quick check, growth inhibition >= 20%? `COc1ccc(N=c2cc(-c3ccccc3)oc3ccccc23)cc1`
N

Please tell me: is the compound CC(C)[Si]1(C(C)C)OCC2OC(n3cnc4c(N)ncnc43)C(N)C2O[Si](C(C)C)(C(C)C)O1 (configuration not stated) at or over 20% in terms of growth inhibition?
Y

Determine whether this compound has growth inhibition no lower than 20%: COC(=O)C(Cc1c[nH]c2ccccc12)N1CN(C)c2ccccc2C1=O (configuration not stated)
N

Determine whether this compound has growth inhibition no lower than 20%: `COc1ccccc1NC(=O)c1ccc(Cl)cc1`
Y

Textbook exercise: given the entry O=S(=O)(c1cccc(C(F)(F)F)c1)N1c2ccccc2-n2cccc2C1c1cccnc1 (configuration not stated) , state whether its growth inhibition is greater than or equal to 20%.
N

Does the reported growth inhibition for `COc1ccc2nc(CCc3ccccc3)ccc2c1` fall at or above the 20% mark?
Y

Quick check: does `NC(=O)NC1C(c2ccccc2)=C1c1ccccc1` have growth inhibition greater than or equal to 20%?
Y

Reported growth inhibition at or above 20%? `Cc1ccc(S(=O)(=O)N/N=C/C(Br)=C(/Br)C(=O)O)cc1`
Y

growth inhibition >= 20% for `CCCCCCCCCC(=O)N(CCC)CCC` ?
Y

Would you say `CC(=O)N1C=Cc2c(c(C)c3c([nH]c4ccccc43)c2C)C1` shows growth inhibition at minimum 20%?
Y

Determine whether measured growth inhibition meets or exceeds 20% for Cc1cccc(C)c1NC(=O)C(C#N)C1=C(Cl)C(=O)c2ccccc2C1=O (configuration not stated)
Y

Does the reported growth inhibition for COc1ccc2c3c1OC(C)C31CC(=O)CCC1CC2 (configuration not stated) fall at or above the 20% mark?
N

Quick check: does `COc1ccc2cc3c4cc5c(cc4cc[n+]3cc2c1OC)OCO5` have growth inhibition greater than or equal to 20%?
Y

Is the recorded value of growth inhibition equal to or greater than 20% for this compound? CC(C)(C)OC(=O)NCCCCC(NC(=O)C(Cc1c[nH]c2ccccc12)NC(=O)OCC1c2ccccc2-c2ccccc21)C(=O)O (configuration not stated) (Fmoc-Trp-Lys(Boc)-OH; configuration not given here)
N

Form field: growth inhibition at least 20%? Entry: CC(=O)/C(=C\c1ccc(Cl)c(Cl)c1)C(=O)C(C)CN(C)C (configuration not stated)
Y

// inclusive: growth inhibition at least 20%? input: `Oc1c2c(c(O)c3ccccc13)C1(N=N2)c2ccccc2Oc2ccccc21`
Y

----------
assay: NCI Yeast Anticancer Drug Screen. Data for the rad18 strain (AID 177); settings: S. cerevisiae rad18 mutant growth inhibition; at 11.0 µM
About 79,000 compounds went through this panel and 15% of them were active in at least one assay; those are over-represented in the sample as a whole. The source made the active and inactive calls. No stated cut-off is given here; in the data, active means growth inhibition above about 70%; inactive means the rest.
API: response.call in active, inactive

Test call, this compound: `CC(=O)N1C=Cc2c(c(C)c3c([nH]c4ccccc43)c2C)C1`
active

Just curious, what result did `CC(C)N(CCCNc1c2ccccc2nc2cccc([N+](=O)[O-])c12)C(C)C` get here?
active

Returns: the outcome recorded for Cc1cccc(C)c1NC(=O)C(C#N)C1=C(Cl)C(=O)c2ccccc2C1=O (centres undefined) in this assay.
active

# fetch the recorded call for `CC(=O)/C=C/c1cccc([N+](=O)[O-])c1` here
inactive

Which result was noted for this compound in the test: CCCCCCC1OCC(O)C(OCCCC)O1 (centres undefined)
inactive

Field: outcome | Entry: `CCN(CC)CCNc1ccc2nc(C)n3c4ccc(OC)cc4c(=O)c1c23`
inactive

Fill in: this test's call for `Cc1oc2ccccc2c(=O)c1Cn1nnc2ccccc21` is ___
inactive

Assay outcome for CC(/C=C/c1ccc([N+](=O)[O-])o1)=N/N1CC(CN2CCOCC2)OC1=O (centres undefined) : what was it?
active

Which outcome did this test record for the compound COc1ccc2c(c1)CCCC(Br)C2=O (centres undefined) ?
inactive

Recorded call for Cc1cccc2c1C1c3c(C)cccc3C(CC(=O)O)CC1CC2 (centres undefined) ?
active

Entry c1ccc2c(c1)N=C1CCCC3CCCC123 (centres undefined) : call = ?
inactive

Hi team, can someone confirm the assay call for COc1ccc2cc(C(C)C(=O)N3CCOC3=O)ccc2c1 (centres undefined) ?
inactive

What is the recorded call for this compound in the test? `CC(C)(CN1CCCCC1)C(=O)/C=C/c1c(Cl)cccc1Cl`
active

Dear colleague, could you share the recorded outcome for NC(=S)N/N=C1\c2ccccc2CCC1CCC1(O)CCc2ccccc2C1=O (centres undefined) when you have a moment?
inactive

Hello, I am checking results. What call was entered for `Cc1c2c(nc3ccccc13)C(=O)c1cccnc1C2=O` ?
inactive

Call for entry CC1=CN2C(c3ccccc3)=NON(c3ccc(C)cn3)C2C=C1 (centres undefined) :
inactive

Outcome logged for `O=C(/C(=C/c1ccc(O)cc1)c1ccccc1)c1ccccc1` in this assay:
inactive

What did this assay record as the result for `CCC(=O)Nc1ccc(N=NN(C)C)cc1` ?
inactive

Hi team, can someone confirm the assay call for `CCCCCCCCCCCNC=O` ?
inactive

# outcome recorded in this test, key = CCCCCCCCN1COCC(COc2ccccc2C)OC1 (centres undefined)
inactive

What is the recorded call for this compound in the test? `CCCN=Cc1cc(Cc2ccc(O)c(C=NCCC)c2)ccc1O`
active

Any idea what this test logged for `O=C1c2cccc3cccc(c23)C(=O)N1CCNCCN1C(=O)c2cccc3cccc(c23)C1=O` ?
inactive

Short answer needed: outcome of this test for CCN1CCC(O)(c2ccc(Oc3ccc(C)cc3)cc2)C(C(=O)c2ccc(Oc3ccc(C)cc3)cc2)C1 (centres undefined) ?
active

Please indicate how the test categorized `CCCCCCC=C(C(=O)OCC)C(=O)OCC` .
inactive

----------
assay: NCI Yeast Anticancer Drug Screen. Data for the mlh1 strain (AID 171); details: S. cerevisiae mlh1 strain growth inhibition; at 100.0 µM
The panel holds about 79,000 compounds, 15% with a hit somewhere; the sample as a whole holds those more often. Activity calls are given as the source filed them. No stated cut-off is given here; in the data, active means growth inhibition above about 70%; inactive means the rest.
// one of active, inactive, no free text

Which result was noted for this molecule in the test: `S=C(NCc1ccccn1)N/N=C/c1ccccn1`
active

Entry `COC(=N)c1ccc(O)c(C)c1` : call = ?
inactive

Could you check what this test reported for `Oc1c2c(c(O)c3ccccc13)C1(N=N2)c2ccccc2Oc2ccccc21` ?
active

# outcome recorded in this test, key = `Cc1ccc(S(=O)(=O)Nc2cccc3cccnc23)cc1`
inactive

Each molecule tested received a call. Report the one for `Cc1ccc(C)c(C(=N)c2ccccc2Cc2ccccc2)c1` .
active

GET /call?item= `CCc1c(Cl)c(C)c(Cl)c(O)c1Cl` returns the recorded outcome of this test.
active

Per the assay record, what outcome was assigned to `Cc1c2c(nc3ccccc13)C(=O)c1cccnc1C2=O` ?
active

Look up the recorded call for `CCS(=O)(=O)Nc1ccc(Nc2c3ccccc3nc3ccccc23)c(OC)c1` in this test.
active

Can you look up the reported call for `O=[N+]([O-])c1ccc(S(=O)(=O)Cc2ccccc2)c([N+](=O)[O-])c1` for me?
active

Dear colleague, could you share the recorded outcome for c1ccc(-c2cc(C3CO3)c3ccccc3n2)cc1 (stereo not given) when you have a moment?
active

Outcome? `O=C(C(Cl)=C(N1CCCCC1)N1CCCCC1)C(Cl)Cl`
inactive

Assay result, entry `CN(C)CCNCCCNc1c2ccccc2nc2cccc([N+](=O)[O-])c12` — outcome?
active

State the result this test recorded for COc1ccc(C2CC(C)(N3CCCC3)Oc3cc4c(cc32)OCO4)cc1 (stereo not given) .
active

Which outcome was entered for the molecule `COc1cc(C(=O)C=O)cc(OC)c1OC` in this test?
active

Can you look up the reported call for `CCOP(=O)(OCC)/C(C#N)=C\c1cccc2ccccc12` for me?
active

Could you kindly confirm the outcome this assay logged for O=CC1(F)CC1(c1ccccc1)c1ccccc1 (stereo not given) ?
active

Give the logged outcome of this assay for the following molecule: `O=C(Nc1cccs1)c1ccccc1`
active

Hi, do you know how `CCCCCCCCSC1=C(Cl)C(=O)C(OC)=C(OC)C1=O` came out in this test?
active

Any idea what this test logged for `C/C(=N/NC(=S)Nc1ccccc1C)c1ccccn1` ?
inactive

In this assay, the call recorded for `O=C1c2ccccc2-c2ccc(N=Cc3ccccc3)cc21` was what?
active

Which outcome did this test record for the molecule `CCCCCCCCCCCCCCN` ?
active

Outcome? `CO[C@@]1([C@@H](Cl)c2ccccc2)C(=O)N(C)/C(=C\c2ccccc2)C(=O)N1C`
inactive

// param item: `Cc1cc(Cl)ccc1NC(=O)/C(Cl)=C(/Cl)C(=O)O` ; yields the recorded call
active

GET /call?item= `Cc1oc2ccccc2c(=O)c1Cn1nnc2ccccc21` returns the recorded outcome of this test.
inactive

Give the logged outcome of this assay for the following molecule: `COc1ccc(C(=O)/C=C\c2ccc(Cl)c(Cl)c2)cc1`
inactive
